measured metric: logP

> print(dat)
                              compound  readout.number
1           CC12CC(CN1C(=O)c1ccccc1)C2            1.75
2        O=C(c1ccccc1)N1CC(C(F)(F)F)C1            1.66
3  O=C(Nc1ccccc1)[C@H]1C[C@H](C(F)F)C1            2.39

(P) O=C(c1ccccc1)N1CCC1C(F)(F)F (centres undefined)
(Q) O=C(Nc1ccccc1)C1CCCCC(F)(F)C1 (centres undefined)
(R) CNC(=O)c1ccccc1
Write the entries in order, lowest recorded logP first. Answer format: list of labels, ordered as asked.
R, P, Q
(R: 1.03, P: 1.75, Q: 3.03)

(I) O=C(c1ccccc1)N1CCC(C(F)(F)F)CC1
(II) O=C(c1ccccc1)N1CC2COCC(C2)C1
Two entries are listed, I and II . Which one carries the higher logP? Respond using the label that marks the chosen record.
I

(P) O=C(c1ccccc1)N1CC2CCCC1(C(F)(F)F)C2 (centres undefined)
(Q) O=C(N[C@@H]1CC[C@H]1CF)c1ccccc1
Lower logP: P or Q ? Respond using the label that marks the chosen record.
Q
(Q: 1.85, P: 2.67)

----------
measured metric: logP

> print(dat)
                                   molecule  readout.number
1                   O=C(Nc1ccccc1)C1CCCCCC1            3.24
2                  CC(F)(F)CCNC(=O)c1ccccc1            1.81
3  O=C(c1ccccc1)N1CCCC(F)C1 (stereo not given)            1.26
4                       O=C(NC1CC1)c1ccccc1            1.29
5  O=C(N[C@@H]1C[C@@H]2[C@H](C1)C2(F)F)c1ccccc1            2.23

(1) O=C(c1ccccc1)N1CC2CC(C1)CC(F)(F)C2
(2) O=C(Nc1ccccc1)C1CCCC(F)(F)CC1 (stereo not given)
I'm curious, which of these has a smaller logP number: 1 or 2 ? Mark your answer with the label of the selected entry.
1

(A) CCNC(=O)c1ccccc1
(B) O=C(Nc1ccccc1)C12CC(C(F)F)(CO1)C2
(C) O=C(Nc1ccccc1)C1CCCCCC1(F)F (stereo not given)
Arrange the 3 molecules from largest to smallest logP. # the answer lists labels in the order requested
C, B, A

(1) O=C(c1ccccc1)N1CC2CC(F)(F)CC(C1)C2(F)F
(2) O=C(c1ccccc1)N1CCC1
Which record shows the lower logP: the first, 1 , or the second, 2 ? Reply with the label of the item you choose.
2

----------
measured metric: logP

Here is how some compounds turned out for logP.
> print(dat)
                compound  readout.number
1    O=C(Nc1ccccc1)C1CC1            1.92
2  O=C(NCCC(F)F)c1ccccc1            1.49

(P) O=C(Nc1ccccc1)C1C(F)(F)C12CC2 (centres undefined)
(Q) O=C(c1ccccc1)N1CCC(CF)CC1
(R) O=C(c1ccccc1)N1CC(F)C1
rank_up(items): orders items by reported logP in ascending numerical order. List the labels, following the order given in the request.
R, Q, P

(P) O=C(c1ccccc1)N1CC2CCC1CC2
(Q) O=C(Nc1ccccc1)[C@@H]1CC[C@H]1C(F)(F)F
(R) O=C(c1ccccc1)N1C[C@H](F)C[C@H](F)C1
Please rank these compounds by logP in descending order. Reply with the labels, ordered as the question asks.
Q, P, R

(P) O=C(c1ccccc1)N1CCCC1C(F)(F)F (centres undefined)
(Q) O=C(c1ccccc1)N1CCC(CF)C1 (centres undefined)
# returns the entry with the larger logP; inputs P and Q Reply with the label of the item you choose.
P

Source of measurements: the SangsterLogP compilation
